Recorded IC50 for the following molecules
Target: hT2R54 (Homo sapiens, UniProt P59534)
Construct: expressed in transfected cells; it overexpresses a promiscuous G protein
Sequence (P59534 1-338): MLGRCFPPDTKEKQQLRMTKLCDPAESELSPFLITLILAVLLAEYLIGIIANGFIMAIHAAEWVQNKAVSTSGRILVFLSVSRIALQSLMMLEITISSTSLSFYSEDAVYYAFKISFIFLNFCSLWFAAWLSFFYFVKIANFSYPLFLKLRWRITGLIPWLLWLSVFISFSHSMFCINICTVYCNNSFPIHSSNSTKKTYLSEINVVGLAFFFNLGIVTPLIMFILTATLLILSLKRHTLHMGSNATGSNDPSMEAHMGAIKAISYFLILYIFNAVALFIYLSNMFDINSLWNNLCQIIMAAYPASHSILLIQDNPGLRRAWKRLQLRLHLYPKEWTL
Assay: Cell-based assay for measuring hT2R54 inhibition (FLIPR calcium, Fluo4AM, acetaminophen as bitter agonist)
Conditions: Table 9; read-out: hT2R54 IC50

molecule: CC(=O)c1cc2c(cc1NC(=O)CC1CCOCC1)OCO2 [compound 270]
measured_target: hT2R54 (Homo sapiens, UniProt P59534)
IC50: 561 nM

molecule: CC(=O)c1cc2c(cc1NC(=O)Cc1cccnc1)OCO2 [compound 273]
measured_target: hT2R54 (Homo sapiens, UniProt P59534)
IC50: 454 nM

molecule: COc1ccccc1CC(=O)Nc1cc2c(cc1OC)OCO2 [compound 522]
measured_target: hT2R54 (Homo sapiens, UniProt P59534)
IC50: 886 nM

molecule: CC(=O)c1cc2c(cc1NC(=O)CC1CCCCO1)OCO2 (centres unmarked) [compound 271]
measured_target: hT2R54 (Homo sapiens, UniProt P59534)
IC50: 152 nM

molecule: CC(=O)c1cc2c(cc1NC(=O)Cc1ccccc1C)OCO2 [compound 277]
measured_target: hT2R54 (Homo sapiens, UniProt P59534)
IC50: 740 nM

The origin of these recorded values is patent US12295396B2.
